Values were extracted from paper PMC4707509.

Target: TSPO (Rattus norvegicus, UniProt P16257)
Construct: Membranes from rat kidneys were prepared as described previously; from tissue; host or cells: rat kidney membranes
Assay: Simplified (one-concentration) competition kinetic association assay
Assay type: binding
Details: shape of [3H]PK11195 association curve, ligand at three-fold Ki
endpoint-name: dissociation rate of the ligand from TSPO (rapid or slow competitor of [3H]PK11195)

CCCCCCN(CCCCCC)C(=O)C(=O)c1c(-c2ccccc2)[nH]c2ccccc12    rapid
CCCN(CCC)C(=O)C(=O)c1c(-c2ccccc2)[nH]c2ccccc12    rapid
CCCN(CCC)C(=O)C(=O)c1c(-c2ccc3ccccc3c2)[nH]c2ccccc12    slow

----------
Molecular target: TSPO (Rattus norvegicus, UniProt P16257)
Construct: Membranes from rat kidneys were prepared as described previously; from tissue; host or cells: rat kidney membranes
Test: Simplified (one-concentration) competition kinetic association assay
Format: binding
Settings: unlabeled ligand at three-fold Ki only
endpoint-name: log10 kon (log10 of the value in M⁻¹ s⁻¹)
Note the log scale: values are log10 of kon expressed in M⁻¹ s⁻¹.

See these solved cases before continuing.
CCCN(CCC)C(=O)C(=O)c1c(-c2ccc3ccccc3c2)[nH]c2ccccc12 [PIGA1128]    6.13
CCCCCCN(CCCCCC)C(=O)C(=O)c1c(-c2ccccc2)[nH]c2ccc(Cl)cc12 [PIGA745]    4.81
CCCCCN(C)C(=O)C(=O)c1c(-c2ccc3ccccc3c2)[nH]c2ccccc12 [PIGA1138]    5.86
CCCN(CCC)C(=O)C(=O)c1c(-c2ccc(C)cc2)[nH]c2ccccc12 [PIGA839]    4.45
CCCCCCN(CCCCCC)C(=O)C(=O)c1c(-c2ccccc2)[nH]c2ccc([N+](=O)[O-])cc12 [PIGA925]    5.05

Missing value: log10 kon, TSPO (Rattus norvegicus, UniProt P16257), entry CCCCN(CCCC)C(=O)C(=O)c1c(-c2ccc(Cl)cc2)[nH]c2ccc(Cl)cc12 [PIGA835] . Fill in?
5.98

----------
Biological target: TSPO (Rattus norvegicus)
Construct: Membranes from rat kidneys were prepared as described previously; from tissue; host or cells: rat kidney membranes
Test: Simplified (one-concentration) competition kinetic association assay
Type: binding
Conditions: unlabeled ligand at three-fold Ki only
Answer each item with its documented koff.
Give bare numbers, in s⁻¹.

CCCN(CCC)C(=O)C(=O)c1c(-c2ccc3ccccc3c2)[nH]c2ccccc12 [PIGA1128]    0.0003
CCCN(CCC)C(=O)C(=O)c1c(-c2ccc(C)cc2)[nH]c2ccccc12 [PIGA839]    0.00015
CCCCN(CCCC)C(=O)C(=O)c1c(-c2ccc(Cl)cc2)[nH]c2ccc(Cl)cc12 [PIGA835]    0.000967
CCCCCN(C)C(=O)C(=O)c1c(-c2ccc3ccccc3c2)[nH]c2ccccc12 [PIGA1138]    0.000117
CCCCCCN(CCCCCC)C(=O)C(=O)c1c(-c2ccccc2)[nH]c2ccc([N+](=O)[O-])cc12 [PIGA925]    0.00113

Now consider a different compound.
Suppose we examine the compound CCCCCCN(CCCCCC)C(=O)C(=O)c1c(-c2ccccc2)[nH]c2ccc(Cl)cc12 [PIGA745] ; what koff value has been reported?
0.000967

----------
Answer each item with its documented Ki.
Target: TSPO (Rattus norvegicus)
Construct: Membranes from rat kidneys were prepared as described previously; from tissue; host or cells: rat kidney membranes
Test: [3H]PK11195 binding displacement assay, rat kidney membranes
Settings: displacement of 1 nM [3H]PK11195, rat kidney membranes, 0 °C; read-out: Equilibrium Ki
Give bare numbers, in nM.

See these solved cases before continuing.
CCCN(CCC)C(=O)C(=O)c1c(-c2ccc(C)cc2)[nH]c2ccccc12    5.5
CCN(Cc1ccccc1)C(=O)C(=O)c1c(-c2ccc(Cl)cc2)[nH]c2ccc(Cl)cc12    3.3
CCCCCCN(CCCCCC)C(=O)C(=O)c1c(-c2ccccc2)[nH]c2ccccc12    1.4
CCCN(CCC)C(=O)C(=O)c1c(-c2ccccc2)[nH]c2ccccc12    12.2

Now consider a different compound.
Suppose we examine the compound CCCN(CCC)C(=O)C(=O)c1c(-c2ccc3ccccc3c2)[nH]c2ccccc12 ; what Ki value has been reported?
0.31

----------
Quick record of Kd values for TSPO (Rattus norvegicus, UniProt P16257).
Numbers only, in nM.

See these solved cases before continuing.
CCCCCCN(CCCCCC)C(=O)C(=O)c1c(-c2ccccc2)[nH]c2ccccc12    1.79
CCCCCCN(CCCCCC)C(=O)C(=O)c1c(-c2ccccc2)[nH]c2ccc([N+](=O)[O-])cc12    10
CCCCCCN(CCCCCC)C(=O)C(=O)c1c(-c2ccc(C(=O)O)cc2)[nH]c2ccccc12    332

Missing value: Kd, TSPO (Rattus norvegicus, UniProt P16257), entry CCCCCCN(CCCCCC)C(=O)C(=O)c1c(-c2ccccc2)[nH]c2ccc(Cl)cc12 . Fill in?
15.1

----------
Answer each item with its documented pKi.
Target: TSPO (Rattus norvegicus)
Construct: Membranes from rat kidneys were prepared as described previously; from tissue; host or cells: rat kidney membranes
Test: [3H]PK11195 binding displacement assay, rat kidney membranes
Details: read-out: Equilibrium Ki
Answers are plain numbers, as −log10 of the molar value.

CCCCCCN(CCCCCC)C(=O)C(=O)c1c(-c2ccccc2)[nH]c2ccc(Cl)cc12    7.88

# batch size: 4; output pKi per entry
1. CCCCCCN(CCCCCC)C(=O)C(=O)c1c(-c2ccccc2)[nH]c2ccc([N+](=O)[O-])cc12
2. CCCCCCN(CCCCCC)C(=O)C(=O)c1c(-c2ccc(C(=O)O)cc2)[nH]c2ccccc12
3. CCCCCN(C)C(=O)C(=O)c1c(-c2ccc3ccccc3c2)[nH]c2ccccc12
4. CCCCN(CCCC)C(=O)C(=O)c1c(-c2ccc(Cl)cc2)[nH]c2ccc(Cl)cc12

1. 7.91
2. 6.46
3. 9.47
4. 9.04

----------
Biological target: TSPO (Rattus norvegicus)
Construct: Membranes from rat kidneys were prepared as described previously; from tissue; host or cells: rat kidney membranes
Experiment: Simplified (one-concentration) competition kinetic association assay
Format: binding
Conditions: shape of [3H]PK11195 association curve, ligand at three-fold Ki
endpoint-name: dissociation rate of the ligand from TSPO (rapid or slow competitor of [3H]PK11195)

CN1C(=O)CN=C(c2ccc(Cl)cc2)c2cc(Cl)ccc21 [Ro5-4864, reference compound]    rapid
CCCCN(CCCC)C(=O)C(=O)c1c(-c2ccc(Cl)cc2)[nH]c2ccc(Cl)cc12    rapid
CCN(Cc1ccccc1)C(=O)C(=O)c1c(-c2ccc(Cl)cc2)[nH]c2ccc(Cl)cc12    slow
CCCCCCN(CCCCCC)C(=O)C(=O)c1c(-c2ccccc2)[nH]c2ccc(Cl)cc12    rapid
CCCCCCN(CCCCCC)C(=O)C(=O)c1c(-c2ccccc2)[nH]c2ccc([N+](=O)[O-])cc12    rapid
CCCCCCN(CCCCCC)C(=O)C(=O)c1c(-c2ccc(C(=O)O)cc2)[nH]c2ccccc12    rapid
CCCCCN(C)C(=O)C(=O)c1c(-c2ccc3ccccc3c2)[nH]c2ccccc12    slow

Suppose we examine the compound CCCN(CCC)C(=O)C(=O)c1c(-c2ccc(C)cc2)[nH]c2ccccc12 ; what dissociation rate of the ligand from TSPO (rapid or slow competitor of [3H]PK11195) value has been reported?
slow
